# Tested on: MOLT-4 leukemia
# Test summary: NCI-60 one-dose screen, 48 h
# Condition parameters: 10 µM unless noted
The panel holds about 83,000 compounds, 20% with a hit somewhere; the sample as a whole holds those more often. The source made the active and inactive calls. How the source made its calls: active means growth percent below 10; inactive means the rest.
Use one of these outcomes when replying: active, inactive

Example cases with answers are listed next.
C[C@@H]1C(=O)N(C[C@H](Cc2ccccc2)N(Cc2ccccc2)Cc2ccccc2)[C@]1(Cc1ccccc1)C(=O)OC(C)(C)C = inactive
CCCCOc1nc2ccc(Cl)cc2cc1/C=C/C(=O)/C=C1/CC(c2cc3cc(Cl)ccc3nc2OCCCC)Nc2ccccc2N1 (stereo not given) = inactive
CCCCCCCC/C=C\CCCCCCCC(=O)Oc1cccc2cccnc12 = inactive
O=c1[nH]c(NCc2nnnn2-c2ccc(Br)cc2)nc2sc3c(c12)CCCC3 = inactive
CN(C)S(=O)(=O)n1cnc([C@@H]2[C@@H]3C(=O)OC[C@@H]3C[C@]23N=CN(Cc2ccccc2)C3=O)c1 = inactive
N#C/C(=C\c1ccc2c(c1)OCO2)n1nnc2ccccc21 = inactive
CN(C)CCCCNc1ccc(NCCCCN(C)C)c2c1C(=O)c1c(O)ccc(O)c1C2=O = active
CCCCNC(=O)c1cc(NCc2cc(O)ccc2O)ccc1O = inactive
O=C(CCc1nc(-c2cccc(Cl)c2)no1)Nc1ccccn1 = inactive
C=C(Cl)COC(=O)C(C)(C)O = inactive

Next, consider the following molecule.
Enquiry: Returns: the outcome recorded for O=C1NC(=S)S/C1=C\N1N=C(c2ccc(Cl)cc2)CC1c1ccc(F)cc1 (stereo not given) in this assay.
Return: inactive
